target: human V1a receptor (Homo sapiens); test: Cellular in vitro assay for vasopressin receptor activity, V1a receptor cell line (aequorin luminescence); details: Table 1A; CHO cell line transfected with human V1a receptor; [Arg8]-vasopressin at EC50; read-out: IC50 hV1a
Sequence (P37288 whole entry): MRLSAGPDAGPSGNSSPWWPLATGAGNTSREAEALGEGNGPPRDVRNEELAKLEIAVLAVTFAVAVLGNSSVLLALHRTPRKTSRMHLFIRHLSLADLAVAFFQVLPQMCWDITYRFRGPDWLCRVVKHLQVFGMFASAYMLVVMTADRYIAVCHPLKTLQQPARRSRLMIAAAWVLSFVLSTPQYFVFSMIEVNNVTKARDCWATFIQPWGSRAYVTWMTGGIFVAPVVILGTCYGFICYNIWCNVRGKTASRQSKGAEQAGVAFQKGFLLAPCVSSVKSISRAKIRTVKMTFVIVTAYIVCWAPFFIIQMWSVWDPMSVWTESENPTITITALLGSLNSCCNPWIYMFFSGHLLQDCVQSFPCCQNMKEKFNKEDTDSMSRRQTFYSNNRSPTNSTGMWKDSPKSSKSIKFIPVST
assay readout: IC50 (nM)

The following compounds have reported results that may help.
CCOc1ccccc1-n1nc(Cn2nc(-c3ccc(Cl)cc3)n(C[C@H](O)C(F)(F)F)c2=O)nc1C(N)=O: 1.6
NC(=O)c1nc(Cn2nc(-c3ccc(Cl)cc3)n(CC(=O)C(F)(F)F)c2=O)nn1-c1ccccc1C(F)(F)F: 1.85
CCOc1ccccc1-n1nc(Cn2nc(-c3ccc(Cl)cc3)n(C[C@@H](O)C(F)(F)F)c2=O)nc1C(N)=O: 8.2
NC(=O)c1nc(Cn2nc(-c3ccc(Cl)cc3)n(C[C@@H](O)C(F)(F)F)c2=O)nn1-c1ccccc1C(F)(F)F: 2.35
NC(=O)c1nc(Cn2nc(-c3ccc(Cl)cc3)n(CC(=O)C(F)(F)F)c2=O)nn1-c1ccccc1OC(F)(F)F: 8.95

1. NC(=O)c1nc(Cn2nc(-c3ccc(Cl)cc3)n(C[C@H](O)C(F)(F)F)c2=O)nn1-c1ccccc1OC(F)(F)F
2. CS(=O)(=O)c1ccccc1-n1nc(Cn2nc(-c3ccc(Cl)cc3)n(C[C@H](O)C(F)(F)F)c2=O)nc1C(N)=O
query: Of 1 and 2 , which one carries the higher reported IC50? Pick one; state its label.
result: 2
